Reported IC50 values are given for each entry in this list.
- system-under-test: p110δ/p85α (Homo sapiens (Human))
- Sequence (O00329 whole entry): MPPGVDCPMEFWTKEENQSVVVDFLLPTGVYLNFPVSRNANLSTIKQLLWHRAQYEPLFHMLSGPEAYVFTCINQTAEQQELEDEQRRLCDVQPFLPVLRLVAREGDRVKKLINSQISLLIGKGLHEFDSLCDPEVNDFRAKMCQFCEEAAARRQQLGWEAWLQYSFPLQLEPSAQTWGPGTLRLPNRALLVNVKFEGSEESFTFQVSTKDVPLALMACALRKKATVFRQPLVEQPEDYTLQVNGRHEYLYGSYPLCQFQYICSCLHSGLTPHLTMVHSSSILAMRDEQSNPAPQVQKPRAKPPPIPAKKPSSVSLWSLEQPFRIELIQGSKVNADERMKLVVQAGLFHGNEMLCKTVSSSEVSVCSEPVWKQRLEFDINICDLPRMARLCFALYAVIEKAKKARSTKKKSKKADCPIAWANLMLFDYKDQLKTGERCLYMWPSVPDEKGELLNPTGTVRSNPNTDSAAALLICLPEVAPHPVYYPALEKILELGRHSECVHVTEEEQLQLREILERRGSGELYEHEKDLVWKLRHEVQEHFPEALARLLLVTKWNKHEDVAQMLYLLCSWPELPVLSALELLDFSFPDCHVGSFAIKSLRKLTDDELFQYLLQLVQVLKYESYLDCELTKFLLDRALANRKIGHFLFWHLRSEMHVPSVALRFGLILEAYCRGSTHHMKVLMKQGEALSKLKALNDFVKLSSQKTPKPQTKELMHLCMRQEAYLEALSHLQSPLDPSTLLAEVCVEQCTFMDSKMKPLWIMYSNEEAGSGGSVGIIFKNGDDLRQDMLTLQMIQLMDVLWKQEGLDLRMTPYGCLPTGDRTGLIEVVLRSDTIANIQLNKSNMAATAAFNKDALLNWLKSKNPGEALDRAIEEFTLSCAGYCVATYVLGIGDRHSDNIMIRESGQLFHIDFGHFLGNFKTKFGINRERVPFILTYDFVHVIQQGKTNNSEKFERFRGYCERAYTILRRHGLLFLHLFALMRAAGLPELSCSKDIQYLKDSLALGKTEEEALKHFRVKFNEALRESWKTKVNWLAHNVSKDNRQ
- Sequence (P27986 whole entry partner): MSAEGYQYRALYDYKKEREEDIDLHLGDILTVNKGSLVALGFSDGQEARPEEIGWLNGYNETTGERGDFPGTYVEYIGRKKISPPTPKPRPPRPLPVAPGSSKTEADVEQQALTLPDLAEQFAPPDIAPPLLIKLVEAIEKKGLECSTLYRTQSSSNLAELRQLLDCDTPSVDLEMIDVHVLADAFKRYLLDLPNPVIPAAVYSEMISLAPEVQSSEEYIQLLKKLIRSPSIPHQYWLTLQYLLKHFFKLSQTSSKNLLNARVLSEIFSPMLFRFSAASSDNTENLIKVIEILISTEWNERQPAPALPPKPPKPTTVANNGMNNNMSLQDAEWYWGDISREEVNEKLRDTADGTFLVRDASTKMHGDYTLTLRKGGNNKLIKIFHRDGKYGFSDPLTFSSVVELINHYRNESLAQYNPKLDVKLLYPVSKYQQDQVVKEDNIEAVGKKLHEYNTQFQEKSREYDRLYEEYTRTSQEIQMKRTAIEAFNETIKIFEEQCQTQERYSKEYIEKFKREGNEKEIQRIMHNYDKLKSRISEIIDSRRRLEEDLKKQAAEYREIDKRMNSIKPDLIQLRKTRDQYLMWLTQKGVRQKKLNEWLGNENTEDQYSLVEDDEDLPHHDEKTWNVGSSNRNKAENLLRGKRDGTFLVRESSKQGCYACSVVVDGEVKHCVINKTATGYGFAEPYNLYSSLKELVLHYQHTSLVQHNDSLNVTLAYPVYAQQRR
- measurement-notes: PI 3-Kinase (human) HTRF assay, p110δ/p85α
- Assay type: biochemical
- experimental-conditions: read-out: PI3K δ In Vitro IC50
measurement-label: IC50

molecule	result
Nc1nc2cc(-c3ccc4nc(N)sc4c3)cc(F)c2o1 [compound 436]	< 1 µM
COC1CN(C(=O)c2cnc3ccc(-c4ccc5oc(N)nc5c4)cn23)C1 [compound 467]	< 10 µM
Nc1nc2cc(-c3ccc4ncc(C(=O)N5CC(N6CC[C@@H](O)C6)C5)n4c3)ccc2o1 [compound 470]	< 10 µM
CN1CCC(n2cnc3ccc(-c4cnc(Cl)c(NS(C)(=O)=O)c4)cc3c2=O)CC1 [compound 526]	< 1 µM
O=C(c1cnc2ccc(-c3cncc(NS(=O)(=O)c4ccccc4)c3)cn12)N1CCOCC1 [compound 424]	< 10 µM
COc1ncc(-c2ccc3ncc(C(=O)N4CCOCC4)n3c2)cc1NS(=O)(=O)c1ccccc1F [compound 422]	< 1 µM
Nc1nc2cc(-c3ccc4ncc(C(=O)N5CC[C@@H](F)C5)n4c3)ccc2o1 [compound 475]	< 10 µM
CO[C@H]1CCN(C(=O)c2cnc3ccc(-c4ccc5oc(N)nc5c4)cn23)C1 [compound 463]	< 10 µM
